# System tested: T1, EsCas13d, nuclease-dead (Eubacterium siraeum, UniProt B0MS50, R295A;H300A;R849A;H854A)
# T1 sequence: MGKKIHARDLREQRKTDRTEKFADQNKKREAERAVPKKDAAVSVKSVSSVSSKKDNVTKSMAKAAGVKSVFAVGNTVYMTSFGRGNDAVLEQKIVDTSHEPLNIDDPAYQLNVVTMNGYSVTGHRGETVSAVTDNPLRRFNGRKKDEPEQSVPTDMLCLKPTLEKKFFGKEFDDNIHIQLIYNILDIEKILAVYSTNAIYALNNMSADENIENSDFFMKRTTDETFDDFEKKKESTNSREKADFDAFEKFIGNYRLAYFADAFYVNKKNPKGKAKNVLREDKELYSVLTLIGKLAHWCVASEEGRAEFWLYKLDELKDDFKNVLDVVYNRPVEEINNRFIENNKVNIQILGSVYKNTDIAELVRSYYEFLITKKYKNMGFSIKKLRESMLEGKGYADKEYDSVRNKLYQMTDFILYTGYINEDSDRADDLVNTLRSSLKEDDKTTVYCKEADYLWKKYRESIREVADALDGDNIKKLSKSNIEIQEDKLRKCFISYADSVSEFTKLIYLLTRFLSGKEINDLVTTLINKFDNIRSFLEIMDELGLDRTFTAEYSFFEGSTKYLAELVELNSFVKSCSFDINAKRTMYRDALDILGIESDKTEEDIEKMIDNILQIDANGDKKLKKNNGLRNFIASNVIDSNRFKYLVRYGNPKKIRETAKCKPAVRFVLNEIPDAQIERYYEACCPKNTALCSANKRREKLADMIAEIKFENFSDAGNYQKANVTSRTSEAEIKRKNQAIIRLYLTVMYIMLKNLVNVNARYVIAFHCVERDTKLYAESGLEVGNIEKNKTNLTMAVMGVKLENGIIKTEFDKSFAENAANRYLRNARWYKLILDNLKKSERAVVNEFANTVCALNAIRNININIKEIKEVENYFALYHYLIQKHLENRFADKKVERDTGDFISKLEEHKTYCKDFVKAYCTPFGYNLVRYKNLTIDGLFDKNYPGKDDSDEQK
# Assay details: crRNA (strand 1, pre-loaded); Mg2+; 40 mM Tris-HCl pH 7.5, 150 mM NaCl, 6 mM MgCl2, 1 mM DTT, 0.1% Tween-20, 0.2 mg/ml BSA; 25 C; 10 min per concentration, then washed
# Condition notes: tags: His6-TwinStrep-SUMO cleaved; N-terminal SNAP kept (SNAP-Surface 488); label: 3' end held by stalled T7 RNA polymerase
pKd: −log10 of the molar value.
// values below are reported pKd
Measured metric: pKd

Binder | Obs value
target 1 C2G,G5A (mixed) RNA 1: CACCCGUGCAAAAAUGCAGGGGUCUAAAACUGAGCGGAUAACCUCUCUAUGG RNA 2: GGGAAUGGAUCCACAUCUACGAAUUCGUACCAUAGAGAGGUUAUCCACUGACCGAGAUCGGAAGAGCACACGU | 7.46
target 1 insC 3' of 15,insG 3' of 7 (mixed) RNA 1: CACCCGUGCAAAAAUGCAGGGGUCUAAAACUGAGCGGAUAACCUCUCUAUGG RNA 2: GGGAAUGGAUCCACAUCUACGAAUUCGUACCAUAGAGCAGGUUAUCGCGCUCACCGAGAUCGGAAGAGCACACGU | 7.76
target 1 MT 5'PFS GUU 3'PFS UGA (mixed) RNA 1: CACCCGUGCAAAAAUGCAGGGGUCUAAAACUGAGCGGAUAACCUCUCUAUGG RNA 2: GGGAAUGGAUCCACAUCUACGAAUUCGUUCCAUAGAGAGGUUAUCCGCUCAUGAAGAUCGGAAGAGCACACGU | 7.78
target 1 MT 5'PFS GAC 3'PFS CUC (mixed) RNA 1: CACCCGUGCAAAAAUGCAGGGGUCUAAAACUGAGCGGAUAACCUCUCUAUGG RNA 2: GGGAAUGGAUCCACAUCUACGAAUUCGACCCAUAGAGAGGUUAUCCGCUCACUCAGAUCGGAAGAGCACACGU | 7.62
